System: Human adenovirus 2
Assay explanation: Compound was tested for inhibition of Adenovirus type 2 proteinase; showed no inhibitory activity
Assay type: functional
Parameters: concentration or dose not given beside the values
Peptide text beside a SMILES is read from it. * marks the point of attachment. Cbz = O=C(OCc1ccccc1)*; N(Me)OMe = CON(C)*; NMeEt = CCN(C)*
# Inhibition per entry
Give the quantity in %, number only.

Compound: N#CCNC(=O)CNC(=O)C(F)(F)F
Recorded metric: Inhibition
Value measured: 0
--
Compound: CC(C)C[C@H](NC(=O)OCc1ccccc1)C(=O)N[C@@H](C)C(=O)NCC(=O)NCC(=O)N(C)C (Cbz-LAGG-NMe2)
Recorded metric: Inhibition
Value measured: 0
--
Compound: CNC(=O)CNC(=O)CNC(=O)[C@H](C)NC(=O)[C@@H](N)CC(C)C (H-LAGG-NHMe)
Recorded metric: Inhibition
Value measured: 0
--
Compound: CON(C)C(=O)CNC(=O)CNC(=O)[C@H](C)NC(=O)[C@H](CC(C)C)NC(=O)OCc1ccccc1 (Cbz-LAGG-{N(Me)OMe})
Recorded metric: Inhibition
Value measured: 0
--
Compound: CCN(C)C(=O)CNC(=O)CNC(=O)[C@H](C)NC(=O)[C@H](CC(C)C)NC(=O)OCc1ccccc1 (Cbz-LAGG-NMeEt)
Recorded metric: Inhibition
Value measured: 0
--
Compound: CC(C)C[C@H](N)C(=O)N[C@@H](C)C(=O)NCC(=O)NCC(N)=O (H-LAGG-NH2)
Recorded metric: Inhibition
Value measured: 0

The record that follows has no Inhibition shown yet.
Q: # input compound: Cl.N#CCN ; wanted: its Inhibition
A: 0

====

Test system: Human adenovirus 2
Assay explanation: Compound was tested for noncompetitive inhibition of Adenovirus type 2 proteinase
Assay type: functional
# Ki per entry
Give the quantity in µM, number only.

Structure notation: CC(C)C[C@H](NC(=O)OCc1ccccc1)C(=O)N[C@@H](C)C(=O)NCC(=O)NCC#N
U: µM
Value measured: 16

The record that follows has no Ki shown yet.
Q: # input molecule: COC(CNC(=O)CNC(=O)[C@H](C)NC(=O)[C@H](CC(C)C)NC(=O)OCc1ccccc1)OC ; wanted: its Ki
A: 380

====

Test system: Human adenovirus 2
Assay explanation: Compound was tested for inhibition of Adenovirus type 2 proteinase
Format: functional
Stated conditions: Human mastadenovirus C
Recorded metric: IC50 (mM)
Give the quantity in mM, number only.

Consider the reported IC50 for these molecules:
Structure notation: COC(CNC(=O)CNC(=O)[C@H](C)NC(=O)[C@H](CC(C)C)NC(=O)OCc1ccccc1)OC
IC50 [mM]: 0.4
--
Structure notation: CC(C)C[C@H](NC(=O)OCc1ccccc1)C(=O)N[C@@H](C)C(=O)NCC(=O)NCC#N
IC50 [mM]: 0.01
--
Structure notation: CC(C)C[C@H](NC(=O)C(F)(F)F)C(=O)N[C@@H](C)C(=O)NCC(=O)NCC#N
IC50 [mM]: 6.9

The record that follows has no IC50 shown yet.
Q: # input molecule: COC(CNC(=O)CNC(=O)[C@H](C)NC(=O)[C@H](CC(C)C)NC(=O)OC(C)(C)C)OC ; wanted: its IC50
A: 1.8

Provenance of the data: ChEMBL document CHEMBL1150533
